Attribute: LD50
System: HepG2 cells
Test: Cytotoxicity, CellTiter Blue Cell Viability Assay (LD50)
Assay type: cell-based
Conditions: HepG2 cells; concentration giving 50% cell death after 72 hours
Numeric answer plus unit only.

MOLECULE	LD50
CC(C)(Oc1ccc(CCNC(=O)c2ccc(Cl)cc2)cc1)C(=O)O [Bezafibrate]	1940 µM
CCCCC(CC)COC(=O)c1ccccc1C(=O)OCC(CC)CCCC (stereo not shown) [Diethylhexylphthalate]	34 µM

Query: Entry CCCCCCCCCCCCCCC(Br)C(=O)O (stereo not shown) [2-Bromohexadecanoic Acid] : reported LD50 = ?
Result: 94 µM

Query: Entry Cc1ccc(C)c(OCCCC(C)(C)C(=O)O)c1 [Gemfibrozil] : reported LD50 = ?
Result: 163 µM

====

Tested on: HepG2 cells
Assay: Cytotoxicity, CellTiter Blue Cell Viability Assay (LD50)
Type: cell-based
Conditions: HepG2 cells; concentration giving 50% cell death after 72 hours
MEASUREMENT NAME: LD50 (µM)
Report only the number, with the unit µM understood.

Examples from the recorded data:
MOLECULE	RESULT UNIT	RESULT VALUE
O=C(O)C(F)(F)C(F)(F)C(F)(F)C(F)(F)C(F)(F)C(F)(F)C(F)(F)F	µM	191
Cc1c(C)c2c(c(C)c1O)CCC(C)(COc1ccc(CC3SC(=O)NC3=O)cc1)O2 (stereo not drawn)	µM	18

From here, focus on the item given below.
Query: Entry CCOC(=O)C(C)(C)Oc1ccc(Cl)cc1 [Clofibrate] : reported LD50 = ?
Result: 240
